System: antibodies in sera from SARS patients (sera 1a, 1b, 2, 6, 37, 62, London, SARS-yellow, SARS-green)
Type: binding, human
Parameters: unit not given here
quantity_name: Binding of serum 37 to looped/cyclic peptides of protein M of SARS-CoV Urbani
Could you keep your reply to the number by itself?

INSERT INTO measurements (seq_string, value_reported) VALUES
  ('KQLLEQWNLVIGFLF', 0.5);

Dear colleague, I am looking for the recorded Binding of serum 37 to looped/cyclic peptides of protein M of SARS-CoV Urbani of the following sequence: QRVGTDSGFAAYNRY
0.6

Note, next up: LVIGAVIIRGHLRMA
0.7

Note, next up: TRSMWSFNPETNILL
1.1

Note, next up: FLAWIMLLQFAYSNR
0.7

Note, next up: AYNRYRIGNYKLNTD
0.6
